Biological target: cyclooxygenase-1 (COX-1) (Ovis aries)
Construct: gene PTGS1; purified ovine COX-1
Sequence (P05979 25-600): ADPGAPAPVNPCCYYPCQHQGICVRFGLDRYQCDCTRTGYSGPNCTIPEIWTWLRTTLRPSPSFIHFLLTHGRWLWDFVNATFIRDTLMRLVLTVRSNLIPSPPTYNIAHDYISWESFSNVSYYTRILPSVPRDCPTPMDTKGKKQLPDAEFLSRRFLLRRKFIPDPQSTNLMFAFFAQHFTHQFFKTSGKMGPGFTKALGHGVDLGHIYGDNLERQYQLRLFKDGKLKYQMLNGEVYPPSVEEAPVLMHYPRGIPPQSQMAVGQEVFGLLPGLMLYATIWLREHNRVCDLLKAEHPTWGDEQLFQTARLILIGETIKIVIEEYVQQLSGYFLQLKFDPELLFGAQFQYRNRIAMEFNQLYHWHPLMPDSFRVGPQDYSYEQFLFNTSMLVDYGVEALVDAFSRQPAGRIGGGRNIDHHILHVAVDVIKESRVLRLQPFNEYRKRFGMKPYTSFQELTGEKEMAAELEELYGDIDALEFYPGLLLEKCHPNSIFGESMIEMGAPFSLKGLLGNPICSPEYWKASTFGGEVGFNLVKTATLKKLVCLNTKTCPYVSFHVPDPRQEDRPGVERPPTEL
Assay: isolated COX-1 activity assay ([…] AA, 12-HHT formation); […] residual activity at […]
Assay type: biochemical
value.kind: IC50

# lookup: IC50 of C[C@H]1COC2=C1C(=O)C(=O)c1c2ccc2c1CCCC2(C)C [CRY, cryptotanshinone]
> 30 µM
